target entity: Pro-Link-tagged Human GLP-1R (human, UniProt P43220 24-463); note: reference of the scale not given here
experimental protocol: cell-based or functional assay

binder | hGLP1R B-Arrestin2 % Top [%]
YXEGTXTSDYSIXLDEKAQXEFIXYLIEGGPSSGAPPPS (Aib2, αMeF(2F)6, αMeL13, K17 conjugated to (2-[2-(2-Amino-ethoxy)-ethoxy]-acetyl)2-(γ-Glu)-CO-(CH2)18-CO2H, Aib20, D-Glu24, C-terminal amide (NH2)) [Example 1] | 105
XXEGTFTSDYSIXLDXKAQXAFIXYLIEGGPSSGAPPPS (D-Tyr1, Aib2, αMeL13, Orn16, K17 conjugated to (2-[2-(2-Amino-ethoxy)-ethoxy]-acetyl)2-(γ-Glu)-CO-(CH2)18-CO2H, Aib20, D-Glu24, C-terminal amide (NH2)) [Example 357] | 18.2
XXEGTFTSDYSIXLDKKAQXEFIEXLIEGGPSSGAPPPS (D-Tyr1, Aib2, αMeL13, K17 conjugated to (2-[2-(2-Amino-ethoxy)-ethoxy]-acetyl)2-(γ-Glu)-CO-(CH2)18-CO2H, Aib20, αMeY25, C-terminal amide (NH2)) [Example 379] | 31.9
XXEGTFTSDYSIXLDKKAQXAFIEXLIAGGPSSGAPPPS (D-Tyr1, Aib2, αMeL13, K17 conjugated to (2-[2-(2-Amino-ethoxy)-ethoxy]-acetyl)2-(γ-Glu)-CO-(CH2)16-CO2H, Aib20, αMeY25, C-terminal amide (NH2)) [Example 376] | 25.6
XXEGTFTSDYSIXLDKKAQXEFIEYLIAGGPSSGAPPPS (D-Tyr1, Aib2, αMeL13, K17 conjugated to (2-[2-(2-Amino-ethoxy)-ethoxy]-acetyl)2-(γ-Glu)-CO-(CH2)18-CO2H, Aib20, C-terminal amide (NH2)) [Example 290] | 20
YXEGTXTSDYSIXLDXKAQXEFIXYLIEGGPSSGAPPPS (Aib2, αMeF(2F)6, αMeL13, Orn16, K17 conjugated to (2-[2-(2-Amino-ethoxy)-ethoxy]-acetyl)2-(γ-Glu)-CO-(CH2)16-CO2H, Aib20, D-Glu24, C-terminal amide (NH2)) [Example 2] | 96.1
